- assay: Metabolic stability in human hepatic microsome
- Format: in vitro ADME
- study.conditions: microsomes, pH 7.4; human hepatic microsome, NADPH(+); read-out: CL NADPH(+)
Positions of bridges follow the written chain, without caps; N, C: chain ends. Non-standard residues stand in square brackets, D forms with d. Residues, ends and D or L forms follow the SMILES beside them. *: point of attachment. NMeF = CN[C@@H](Cc1ccccc1)C(=O)O; NMeL = CN[C@@H](CC(C)C)C(=O)O; NMeA = CN[C@@H](C)C(=O)O; Piperidide = C1CCN(*)CC1; Sar = CNCC(=O)O; tBu = CC(C)(C)*
Readings of microsomal CLint at 1 uM for the listed molecules
Report the figure in µL/min/mg without appending any unit label.

CC(C)C[C@H]1C(=O)N[C@@H](COC(C)(C)C)C(=O)N[C@H](C(=O)N2CCCCC2)CC(=O)N[C@H](C)C(=O)N(C)[C@@H](Cc2ccccc2)C(=O)N(C)[C@@H](CC(C)C)C(=O)N[C@@H]([C@@H](C)O)C(=O)N(C)[C@@H](C)C(=O)N1C [DP-529] ([dA][NMeF][NMeL]T[NMeA][NMeL]S(tBu)D-Piperidide; lactam N-8): 100

Per the record, CC(C)C[C@@H]1NC(=O)[C@H](C(C)C)NC(=O)C[C@@H](C(=O)N2CCCCC2)NC(=O)[C@H]([C@@H](C)O)NC(=O)CN(C)C(=O)[C@H](CC(C)C)N(C)C(=O)[C@H](CC(C)C)N(C)C1=O [DP-727] (VL[NMeL][NMeL][Sar]TD-Piperidide; lactam N-7) has microsomal CLint at 1 uM of 59

* * *

- assay: PAMPA (parallel artificial membrane permeability assay)
- Assay type: in vitro ADME
- study.conditions: PAMPA; membrane permeation rate (Pe); 50 mM MOPSO buffer pH 6.5 with 5.0% glycocholic acid, 37° C., 18 hours; read-out: iPAMPA Pe
Positions of bridges follow the written chain, without caps; N, C: chain ends. Non-standard residues stand in square brackets, D forms with d. Residues, ends and D or L forms follow the SMILES beside them. *: point of attachment. NMeF = CN[C@@H](Cc1ccccc1)C(=O)O; NMeL = CN[C@@H](CC(C)C)C(=O)O; NMeV = CN[C@H](C(=O)O)C(C)C; NMeA = CN[C@@H](C)C(=O)O; Piperidide = C1CCN(*)CC1; dNMeA = CN[C@H](C)C(=O)O; Sar = CNCC(=O)O
Readings of Papp at 18 hours, 50 µM for the listed molecules
Report the figure in ×10⁻⁶ cm/s without appending any unit label.

CC[C@H](C)[C@@H]1NC(=O)[C@@H](C)N(C)C(=O)C[C@@H](C(=O)N(C)[C@@H](Cc2ccccc2)C(=O)N[C@@H](C)C(=O)N2CCCCC2)NC(=O)[C@H](Cc2ccccc2)N(C)C(=O)CN(C)C(=O)[C@H]([C@@H](C)O)NC(=O)[C@H](C)N(C)C(=O)[C@H](C(C)C)N(C)C(=O)[C@H](Cc2ccccc2)NC(=O)[C@H](CC(C)C)N(C)C(=O)[C@H](CC(C)C)N(C)C1=O [DP-183] ([dNMeA]I[NMeL][NMeL]F[NMeV][NMeA]T[Sar][NMeF]D[NMeF]A-Piperidide; lactam N-11): 29

Proceed to the following item.
Per the record, CC(C)C[C@H]1C(=O)N(C)[C@@H](C)C(=O)N[C@@H]([C@@H](C)O)C(=O)N(C)[C@@H](C)C(=O)N(C)[C@@H](Cc2ccccc2)C(=O)N(C)[C@@H](C)C(=O)N[C@@H](C)C(=O)N(C)[C@@H](C)C(=O)N(C)[C@@H](C)C(=O)N[C@H](C(=O)N(C)[C@@H](Cc2ccccc2)C(=O)N[C@@H](C)C(=O)N2CCCCC2)CC(=O)N(C)[C@H](C)C(=O)N1C [DP-444] ([dNMeA][NMeL][NMeA]T[NMeA][NMeF][NMeA]A[NMeA][NMeA]D[NMeF]A-Piperidide; lactam N-11) has Papp at 18 hours, 50 µM of 0.72
